Tested on: J82
TEST: Antiproliferative activity against human cisplatin resistant J82 cells assessed as reduction in cell viability incubated for 72 hrs by MTT assay
Format: functional, cell-based
RUN PARAMETERS: J82, 72 h
MEASUREMENT LABEL: pIC50
Please report pIC50 as the negative decimal logarithm of the molar concentration, giving only the number.

Task: May I ask what pIC50 has been recorded for CC(=O)OC[C@]12Oc3c(-c4ccc(O)c5c4O[C@@]4(COC(C)=O)C(=C(O)C[C@@H](C)[C@H]4OC(C)=O)C5=O)ccc(O)c3C(=O)C1=C(O)C[C@@H](C)[C@H]2OC(C)=O [PHOMOXANTHONE A] ?
Result: 5.69
